# Procedure text: Phase 1b MAD plasma pharmacokinetics, non-compartmental analysis
# Type: in vivo, human
# Condition summary: human, plasma, po, 10 mg, Table 19 (interim): Cohort A, 40 mg SDD (10 mg NTRX-07) QD oral, Day 1; individual subjects; read-out: Tmax
# Experimental: Methods: All study procedures were approved by the IRB, and informed consent was obtained. […] Subjects were assessed for changes in vital signs, including maneuvers to induce lightheadedness, electrocardiograms, 24-hour electroencephalograms (EEG), and safety laboratory studies. […] Raw bioanalytical data were received from Nuvisan following analysis of plasma samples from each of four cohorts. PK parameters were calculated by noncompartmental analysis using standard equations. […]
Readout name: Tmax (min)
Form entry: value (min) — number only.

Input: Find the measured Tmax of CC1(Cc2ccccc2)COc2cc(C(=O)N3CCCCC3)ccc21 (stereo not shown) and report it.
Output: 30

---

# Procedure text: Phase 1b MAD plasma pharmacokinetics, non-compartmental analysis
# Format: in vivo, human
# Condition summary: human, plasma, po, 10 mg, Table 9: Cohort A, 10 mg QD oral, Day 1; mean ± S.D.; read-out: Cmax
Readout name: Cmax (ng/mL)
Report only the number, with the unit ng/mL understood.

Input: Identify measured Cmax corresponding to CC1(Cc2ccccc2)COc2cc(C(=O)N3CCCCC3)ccc21 (stereo not shown)
Output: 35.6

---

# Procedure text: Phase 1b MAD plasma pharmacokinetics, non-compartmental analysis
# Type: in vivo, human
# Condition summary: human, plasma, po, 90 mg, Table 14: Cohort C, 90 mg QD oral, Day 1; mean ± S.D.
Readout name: AUC over 24 h (AUC0-24) (ng·h/mL)
Write it as a number; the unit ng·h/mL goes unstated.

Input: Note down AUC over 24 h (AUC0-24) recorded for CC1(Cc2ccccc2)COc2cc(C(=O)N3CCCCC3)ccc21 (stereo not shown) [NTRX-07]
Output: 1270

---

# Procedure text: Phase 1b MAD plasma pharmacokinetics, non-compartmental analysis
# Assay type: in vivo, human
# Condition summary: human, plasma, po, 120 mg, Table 25 (interim): Cohort B, 120 mg SDD (30 mg NTRX-07) QD oral, Day 7; mean ± S.D.; read-out: Cmax
Readout name: Cmax (ng/mL)
Express it in ng/mL; write the number only.

Input: Look up and report measured Cmax for this entry: CC1(Cc2ccccc2)COc2cc(C(=O)N3CCCCC3)ccc21 (stereo not shown)
Output: 120

---

# Procedure text: Phase 1b MAD plasma pharmacokinetics, non-compartmental analysis
# Format: in vivo, human
# Condition summary: human, plasma, po, 120 mg, Table 25 (interim): Cohort B, 120 mg SDD (30 mg NTRX-07) QD oral, Day 7; mean ± S.D.
Readout name: AUC over 24 h (AUC0-24) (ng·h/mL)
Please reply with the bare figure in ng·h/mL and do not write the unit itself.

Input: Give reported AUC over 24 h (AUC0-24) value for CC1(Cc2ccccc2)COc2cc(C(=O)N3CCCCC3)ccc21 (stereo not shown)
Output: 214

---

# Procedure text: Phase 1b MAD plasma pharmacokinetics, non-compartmental analysis
# Format: in vivo, human
# Condition summary: human, plasma, po, 10 mg, Table 20 (interim): Cohort A, 40 mg SDD (10 mg NTRX-07) QD oral, Day 7; individual subjects; read-out: Tmax
Readout name: Tmax (min)
# output: bare number, implied unit min

Input: Report Tmax, nothing else, for this molecule: CC1(Cc2ccccc2)COc2cc(C(=O)N3CCCCC3)ccc21 (stereo not shown) [NTRX-07]
Output: 30
